Molecular target: T1, HLA-A*02:01 (human)
T1 construct: monomers captured on streptavidin plates; also called MHC class I
Test: UV peptide exchange ELISA
QUANTITY NAME: peptide exchange yield

> print(dat)
         binder     result
1     SLIPNLRNV  50 to 75%
2    ILFANPNIFV  50 to 75%
3  ALLDVTHSELTV  50 to 75%
4     TLWYRSPEV  20 to 50%
5     YSLSSVVTV  50 to 75%

INPUT: Can you look up the measured peptide exchange yield of `SLLDLETLSL` for me?
OUTPUT: ≥ 75%

INPUT: Can you look up the measured peptide exchange yield of `LLLNAVLTV` for me?
OUTPUT: 20 to 50%

INPUT: Can you look up the measured peptide exchange yield of `ALLPQPKNLTV` for me?
OUTPUT: 50 to 75%
